experiment: Ratio of the IC50s of the two assays (alpha1 adrenoceptor binding assay/GT functional assay) used as an estimate of Therapeutic Index
Readout label: TI

Lookup result for C[C@@H]([C@@H](O)c1ccc2c(c1)CC(=O)N2)N1CCC(Cc2ccccc2)CC1 ; measured TI: 6.4

Lookup result for C[C@@H]([C@H](O)c1ccc2c(c1)CC(=O)N2)N1CCC(Cc2ccccc2)CC1 ; measured TI: 0.4

Lookup result for C[C@@H]([C@@H](O)c1ccc(O)cc1)N1CCC(Cc2ccccc2)CC1 ; measured TI: 15.3

Lookup result for C[C@@H]([C@H](O)c1ccc(O)cc1)N1CCC(Cc2ccccc2)CC1 [(R,S)-IFENPRODIL] ; measured TI: 0.38

Lookup result for OC(CN1CCC(Cc2ccc(F)cc2)CC1)c1ccc(Cl)cc1 (configuration not stated) ; measured TI: 0.8

Lookup result for O=C1Cc2cc(C(O)CN3CCC(Cc4ccc(F)cc4)CC3)ccc2N1 (configuration not stated) ; measured TI: 0.3

Lookup result for C[C@@H]([C@@H](O)c1ccc2c(c1)CC(=O)N2)N1CCC(c2ccccc2)CC1 ; measured TI: 8.7

###

Assign IC50 to each entry below.
Biological target: Adrenergic receptor alpha-1 (Rattus norvegicus, UniProt P15823+P23944+P43140)
Sequence (P15823 whole entry): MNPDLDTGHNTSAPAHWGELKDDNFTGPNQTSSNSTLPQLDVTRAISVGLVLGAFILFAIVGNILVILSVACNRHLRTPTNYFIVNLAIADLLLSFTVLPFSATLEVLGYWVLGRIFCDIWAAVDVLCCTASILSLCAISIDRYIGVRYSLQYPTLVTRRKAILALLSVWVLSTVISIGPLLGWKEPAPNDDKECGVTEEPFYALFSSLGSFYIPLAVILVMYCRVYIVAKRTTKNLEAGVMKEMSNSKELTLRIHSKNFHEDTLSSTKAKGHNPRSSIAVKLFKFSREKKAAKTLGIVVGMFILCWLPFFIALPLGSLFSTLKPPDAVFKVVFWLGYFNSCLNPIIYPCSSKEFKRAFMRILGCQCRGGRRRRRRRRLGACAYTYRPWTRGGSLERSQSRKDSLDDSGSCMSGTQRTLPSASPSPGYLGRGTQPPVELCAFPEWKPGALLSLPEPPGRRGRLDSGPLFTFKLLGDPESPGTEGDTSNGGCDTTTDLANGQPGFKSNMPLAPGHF
Sequence (P23944 whole entry): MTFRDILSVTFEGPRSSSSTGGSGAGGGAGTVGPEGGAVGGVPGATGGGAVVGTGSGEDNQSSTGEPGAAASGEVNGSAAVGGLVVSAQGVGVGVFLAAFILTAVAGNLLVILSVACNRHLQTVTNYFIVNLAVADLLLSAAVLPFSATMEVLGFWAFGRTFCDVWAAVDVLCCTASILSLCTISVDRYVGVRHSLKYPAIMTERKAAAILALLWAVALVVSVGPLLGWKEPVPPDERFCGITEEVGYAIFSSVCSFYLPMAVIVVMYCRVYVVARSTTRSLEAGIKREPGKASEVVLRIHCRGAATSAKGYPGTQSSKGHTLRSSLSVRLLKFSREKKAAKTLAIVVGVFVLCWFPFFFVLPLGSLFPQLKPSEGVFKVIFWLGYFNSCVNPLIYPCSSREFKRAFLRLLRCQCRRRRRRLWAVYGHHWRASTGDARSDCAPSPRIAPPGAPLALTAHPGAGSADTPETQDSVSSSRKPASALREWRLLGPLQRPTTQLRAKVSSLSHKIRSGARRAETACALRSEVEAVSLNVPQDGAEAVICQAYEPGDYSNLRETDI
Sequence (P43140 whole entry): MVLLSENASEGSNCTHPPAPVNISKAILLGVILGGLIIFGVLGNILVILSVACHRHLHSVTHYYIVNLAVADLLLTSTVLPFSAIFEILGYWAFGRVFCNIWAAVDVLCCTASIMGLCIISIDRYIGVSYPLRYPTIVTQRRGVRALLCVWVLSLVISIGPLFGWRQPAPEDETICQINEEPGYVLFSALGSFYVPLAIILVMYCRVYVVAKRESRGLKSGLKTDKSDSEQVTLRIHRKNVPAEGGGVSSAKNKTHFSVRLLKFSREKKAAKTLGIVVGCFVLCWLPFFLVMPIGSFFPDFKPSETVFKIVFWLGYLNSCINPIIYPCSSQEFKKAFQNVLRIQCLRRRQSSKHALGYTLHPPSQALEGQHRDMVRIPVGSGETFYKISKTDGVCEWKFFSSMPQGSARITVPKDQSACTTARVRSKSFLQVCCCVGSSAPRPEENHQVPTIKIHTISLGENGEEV
Assay: Tested for the Alpha-1 adrenergic receptor affinity in a standard radioligand binding assay with [3H]- prazosin
Assay type: protein assay
Response body: numeric value in nM, unit text excluded.

Lookup result for C[C@@H]([C@H](O)c1ccc(O)cc1)N1CCC(Cc2ccccc2)CC1 [(R,S)-IFENPRODIL] ; measured IC50: 100

Lookup result for C[C@@H]([C@@H](O)c1ccc2c(c1)CC(=O)N2)N1CCC(Cc2ccccc2)CC1 ; measured IC50: 710

Lookup result for OC(CN1CCC(Cc2ccc(F)cc2)CC1)c1ccc(Cl)cc1 (stereo unspecified) [ELIPRODIL] ; measured IC50: 800

Lookup result for C[C@@H]([C@@H](O)c1ccc2c(c1)CC(=O)N2)N1CCC(c2ccccc2)CC1 ; measured IC50: 349

Lookup result for C[C@@H]([C@H](O)c1ccc2c(c1)CC(=O)N2)N1CCC(Cc2ccccc2)CC1 ; measured IC50: 100

Lookup result for O=C1Cc2cc(C(O)CN3CCC(Cc4ccc(F)cc4)CC3)ccc2N1 (stereo unspecified) ; measured IC50: 183
